Just for reference, patent US6989371B1 is where these values come from.

- Tested on: PTC (colon)
- Assay remarks: MTT cytotoxicity assay, 48 hours (Example 14)
- Type: cell-based, human
- Details: 100 pM
Non-standard residues stand in square brackets, D forms with d. Residues, ends and D or L forms follow the SMILES beside them. *: point of attachment. Aib = CC(C)(N)C(=O)O; Butyryl = CCCC(=O)*
Assay readout: Percentage cytotoxicity

I am curious: what Percentage cytotoxicity value has been reported for CCCC(=O)N[C@H](Cc1ccccc1)C(=O)N[C@@H](CCC(N)=O)C(=O)N[C@@H](Cc1c[nH]c2ccccc12)C(=O)N[C@@H](C)C(=O)N[C@H](C(=O)NC(C)(C)C(=O)N[C@@H](Cc1c[nH]cn1)C(=O)N[C@@H](CC(C)C)C(N)=O)C(C)C [SEQ ID: 11] (Butyryl-[dF]QWAV[Aib]HL-NH2) ?
28.3 ± 0.8%

* * *

- System: HuTu80 (Stomach)
- Assay remarks: MTT cytotoxicity assay, 48 hours (Example 14)
- Format: cell-based, human
- Details: HuTu80, 100 nM
Non-standard residues stand in square brackets, D forms with d. Residues, ends and D or L forms follow the SMILES beside them. *: point of attachment. Octanoyl = CCCCCCCC(=O)*; Ac5c = NC1(C(=O)O)CCCC1; Deg = CCC(N)(CC)C(=O)O; Aib = CC(C)(N)C(=O)O; Butyryl = CCCC(=O)*
Entries and their Percentage cytotoxicity
Note: a bare number is incomplete; add the unit.

Below are worked cases with known answers.
Molecule	Result value
CCCC(=O)N[C@H](Cc1ccccc1)C(=O)N[C@@H](CCC(N)=O)C(=O)N[C@@H](Cc1c[nH]c2ccccc12)C(=O)N[C@@H](C)C(=O)N[C@H](C(=O)NC(C)(C)C(=O)N[C@@H](Cc1c[nH]cn1)C(=O)N[C@@H](CC(C)C)C(N)=O)C(C)C [SEQ ID: 11] (Butyryl-[dF]QWAV[Aib]HL-NH2)	20.0 ± 3.1%
CCCCCCCC(=O)N[C@H](Cc1ccccc1)C(=O)N[C@@H](CCC(N)=O)C(=O)N[C@@H](Cc1c[nH]c2ccccc12)C(=O)N[C@@H](C)C(=O)N[C@H](C(=O)NC(C)(C)C(=O)N[C@@H](Cc1c[nH]cn1)C(=O)N[C@@H](CC(C)C)C(N)=O)C(C)C [SEQ ID: 12] (Octanoyl-[dF]QWAV[Aib]HL-NH2)	21.8 ± 2.1%
CC(C)C[C@H](NC(=O)[C@H](Cc1c[nH]cn1)NC(=O)C1(NC(=O)[C@@H](NC(=O)[C@H](C)NC(=O)[C@H](Cc2c[nH]c3ccccc23)NC(=O)[C@H](CCC(N)=O)NC(=O)[C@H](N)Cc2ccccc2)C(C)C)CCCC1)C(N)=O [SEQ ID: 10, D-Phe-Gln-Trp-Ala-Val-Ac5c-His-Leu-NH2] (H-[dF]QWAV[Ac5c]HL-NH2; N-terminus assumed)	21.0 ± 2.0%

I am curious: what Percentage cytotoxicity value has been reported for CCC(CC)(NC(=O)[C@H](Cc1c[nH]c2ccccc12)NC(=O)[C@H](CCC(N)=O)NC(=O)[C@H](N)Cc1ccccc1)C(=O)N[C@H](C(=O)NCC(=O)N[C@@H](Cc1c[nH]cn1)C(=O)N[C@@H](CC(C)C)C(N)=O)C(C)C [SEQ ID: 9, D-Phe-Gln-Trp-Deg-Val-Gly-His-Leu-NH2] (H-[dF]QW[Deg]VGHL-NH2; N-terminus assumed) ?
13.5 ± 2.1%

* * *

- Test system: SW620 (colon)
- Assay remarks: MTT cytotoxicity assay, 48 hours (Example 14)
- Type: cell-based, human
- Details: SW620, 100 pM
Non-standard residues stand in square brackets, D forms with d. Residues, ends and D or L forms follow the SMILES beside them. *: point of attachment. Octanoyl = CCCCCCCC(=O)*; Ac5c = NC1(C(=O)O)CCCC1; Deg = CCC(N)(CC)C(=O)O; Aib = CC(C)(N)C(=O)O; Butyryl = CCCC(=O)*
Assay readout: Percentage cytotoxicity (%)
Numbers only; they are read as %.

Below are worked cases with known answers.
Molecule	Experimental system	Uom	Percentage cytotoxicity
CCCCCCCC(=O)N[C@H](Cc1ccccc1)C(=O)N[C@@H](CCC(N)=O)C(=O)N[C@@H](Cc1c[nH]c2ccccc12)C(=O)N[C@@H](C)C(=O)N[C@H](C(=O)NC(C)(C)C(=O)N[C@@H](Cc1c[nH]cn1)C(=O)N[C@@H](CC(C)C)C(N)=O)C(C)C [SEQ ID: 12] (Octanoyl-[dF]QWAV[Aib]HL-NH2)	SW620 (colon)	%	38.4
CC(C)C[C@H](NC(=O)[C@H](Cc1c[nH]cn1)NC(=O)C1(NC(=O)[C@@H](NC(=O)[C@H](C)NC(=O)[C@H](Cc2c[nH]c3ccccc23)NC(=O)[C@H](CCC(N)=O)NC(=O)[C@H](N)Cc2ccccc2)C(C)C)CCCC1)C(N)=O [SEQ ID: 10, D-Phe-Gln-Trp-Ala-Val-Ac5c-His-Leu-NH2] (H-[dF]QWAV[Ac5c]HL-NH2; N-terminus assumed)	SW620 (colon)	%	20.9
CCC(CC)(NC(=O)[C@H](Cc1c[nH]c2ccccc12)NC(=O)[C@H](CCC(N)=O)NC(=O)[C@H](N)Cc1ccccc1)C(=O)N[C@H](C(=O)NCC(=O)N[C@@H](Cc1c[nH]cn1)C(=O)N[C@@H](CC(C)C)C(N)=O)C(C)C [SEQ ID: 9, D-Phe-Gln-Trp-Deg-Val-Gly-His-Leu-NH2] (H-[dF]QW[Deg]VGHL-NH2; N-terminus assumed)	SW620 (colon)	%	28.9

Now examine the next entry.
I am curious: what Percentage cytotoxicity value has been reported for CCCC(=O)N[C@H](Cc1ccccc1)C(=O)N[C@@H](CCC(N)=O)C(=O)N[C@@H](Cc1c[nH]c2ccccc12)C(=O)N[C@@H](C)C(=O)N[C@H](C(=O)NC(C)(C)C(=O)N[C@@H](Cc1c[nH]cn1)C(=O)N[C@@H](CC(C)C)C(N)=O)C(C)C [SEQ ID: 11] (Butyryl-[dF]QWAV[Aib]HL-NH2) ?
25.9

* * *

- System: HBL100 (breast)
- Assay remarks: MTT cytotoxicity assay, 72 hours (Example 13)
- Type: cell-based, human
- Details: HBL, 100 PM
Non-standard residues stand in square brackets, D forms with d. Residues, ends and D or L forms follow the SMILES beside them. Aib = CC(C)(N)C(=O)O
Entries and their Percent Cytotoxicity
Numbers only; they are read as %.

Compound	Uom	Result value
CC[C@H](C)[C@H](NC(=O)[C@H](Cc1c[nH]cn1)NC(=O)C(C)(C)NC(=O)[C@@H](NC(=O)[C@H](C)NC(=O)[C@H](Cc1c[nH]c2ccccc12)NC(=O)[C@H](CCC(N)=O)NC(=O)[C@H](N)Cc1ccccc1)C(C)C)C(N)=O [SEQ ID: 7, D-Phe-Gln-Trp-Ala-Val-Aib-His-Ile-NH2] (H-[dF]QWAV[Aib]HI-NH2; N-terminus assumed)	%	4.0
CC(C)C[C@H](NC(=O)[C@H](Cc1c[nH]cn1)NC(=O)C(C)(C)NC(=O)[C@@H](NC(=O)[C@H](C)NC(=O)[C@@H](Cc1c[nH]c2ccccc12)NC(=O)[C@H](CCC(N)=O)NC(=O)[C@H](N)Cc1ccccc1)C(C)C)C(N)=O [SEQ ID: 5, D-Phe-Gln-D-Trp-Ala-Val-Aib-His-Leu-NH2] (H-[dF]Q[dW]AV[Aib]HL-NH2; N-terminus assumed)	%	19.3
CC(C)C[C@H](NC(=O)[C@H](Cc1c[nH]cn1)NC(=O)CNC(=O)[C@@H](NC(=O)C(C)(C)NC(=O)[C@H](Cc1c[nH]c2ccccc12)NC(=O)[C@H](CCC(N)=O)NC(=O)[C@H](N)Cc1ccccc1)C(C)C)C(N)=O [SEQ ID: 4, D-Phe-Gln-Trp-Aib-Val-Gly-His-Leu-NH2] (H-[dF]QW[Aib]VGHL-NH2; N-terminus assumed)	%	33.0

Observed Percent Cytotoxicity on HBL100 (breast) for `CCCC(CCC)(NC(=O)[C@@H](NC(=O)[C@H](C)NC(=O)[C@@H](Cc1c[nH]c2ccccc12)NC(=O)[C@H](CCC(N)=O)NC(=O)[C@H](N)Cc1ccccc1)C(C)C)C(=O)N[C@@H](Cc1c[nH]cn1)C(=O)N[C@@H](CC(C)C)C(N)=O` , please.
12.1

* * *

- Tested on: PTC (colon)
- Assay remarks: MTT cytotoxicity assay, 48 hours (Example 14)
- Format: cell-based, human
- Details: 1 μM
Non-standard residues stand in square brackets, D forms with d. Residues, ends and D or L forms follow the SMILES beside them. *: point of attachment. Octanoyl = CCCCCCCC(=O)*; Ac5c = NC1(C(=O)O)CCCC1; Deg = CCC(N)(CC)C(=O)O; Aib = CC(C)(N)C(=O)O; Butyryl = CCCC(=O)*
Assay readout: Percentage cytotoxicity (%)
Numbers only; they are read as %.

Below are worked cases with known answers.
Molecule	Result value
CCCC(=O)N[C@H](Cc1ccccc1)C(=O)N[C@@H](CCC(N)=O)C(=O)N[C@@H](Cc1c[nH]c2ccccc12)C(=O)N[C@@H](C)C(=O)N[C@H](C(=O)NC(C)(C)C(=O)N[C@@H](Cc1c[nH]cn1)C(=O)N[C@@H](CC(C)C)C(N)=O)C(C)C [SEQ ID: 11] (Butyryl-[dF]QWAV[Aib]HL-NH2)	18.6
CC(C)C[C@H](NC(=O)[C@H](Cc1c[nH]cn1)NC(=O)C1(NC(=O)[C@@H](NC(=O)[C@H](C)NC(=O)[C@H](Cc2c[nH]c3ccccc23)NC(=O)[C@H](CCC(N)=O)NC(=O)[C@H](N)Cc2ccccc2)C(C)C)CCCC1)C(N)=O [SEQ ID: 10, D-Phe-Gln-Trp-Ala-Val-Ac5c-His-Leu-NH2] (H-[dF]QWAV[Ac5c]HL-NH2; N-terminus assumed)	28.4
CCCCCCCC(=O)N[C@H](Cc1ccccc1)C(=O)N[C@@H](CCC(N)=O)C(=O)N[C@@H](Cc1c[nH]c2ccccc12)C(=O)N[C@@H](C)C(=O)N[C@H](C(=O)NC(C)(C)C(=O)N[C@@H](Cc1c[nH]cn1)C(=O)N[C@@H](CC(C)C)C(N)=O)C(C)C [SEQ ID: 12] (Octanoyl-[dF]QWAV[Aib]HL-NH2)	14.4

Now examine the next entry.
Observed Percentage cytotoxicity on PTC (colon) for CCC(CC)(NC(=O)[C@H](Cc1c[nH]c2ccccc12)NC(=O)[C@H](CCC(N)=O)NC(=O)[C@H](N)Cc1ccccc1)C(=O)N[C@H](C(=O)NCC(=O)N[C@@H](Cc1c[nH]cn1)C(=O)N[C@@H](CC(C)C)C(N)=O)C(C)C [SEQ ID: 9, D-Phe-Gln-Trp-Deg-Val-Gly-His-Leu-NH2] (H-[dF]QW[Deg]VGHL-NH2; N-terminus assumed) , please.
10.3
